# System: Plasmodium falciparum
# Protocol details: Inhibitory concentration for Plasmodium falciparum
# Format: functional, organism-based
Experimental endpoint: IC50 (mg/L)

[A] OC1CCCN(c2[nH]ccc3c4ccccc4nc2-3)C1 (configuration not stated)
[B] CCN(CC)CCCC(C)Nc1nccc2c1[nH]c1ccccc12 (configuration not stated)
Rank A against B by their IC50 values and give the higher one. // output: label of the selected item
A

[A] c1ccc2c3cc[nH]c(N4CCN(N5CCCC5)CC4)c-3nc2c1
[B] OCCNc1[nH]ccc2c3ccccc3nc1-2
Rank A against B by their IC50 values and give the higher one. // output: label of the selected item
B
(B: 2.4 mg/L, A: 0.45 mg/L)

---

# Tested on: Plasmodium falciparum
# Protocol details: Inhibitory concentration for Plasmodium falciparum
# Assay type: functional, organism-based
Experimental endpoint: IC50 (µg/mL)

CN1CCN(c2nccc3c2[nH]c2ccccc23)CC1 :: 0.62
c1ccc2c3cc[nH]c(N4CCN(N5CCCCC5)CC4)c-3nc2c1 :: 0.39
CCN(CC)N1CCN(c2[nH]ccc3c4ccccc4nc2-3)CC1 :: 0.41
CN(C)CCCNc1nccc2c1[nH]c1ccccc12 :: 0.45

[1] c1ccc2c3cc[nH]c(N4CCN(N5CCCCCC5)CC4)c-3nc2c1
[2] c1ccc2c(c1)[nH]c1c(N3CCCCC3)nccc12
[3] CCN(CC)CCCNc1nccc2c1[nH]c1ccccc12
[4] c1ccc2c(c1)[nH]c1c(N3CCOCC3)nccc12
Rank ascending by IC50. Put the labels in the requested order and write them down.
1, 3, 2, 4
(1: 0.35 µg/mL, 3: 0.64 µg/mL, 2: 1.2 µg/mL, 4: 4.59 µg/mL)
